The values you see were collected from PubChem BioAssay AID430.

assay: cytotoxicity in HPDE-C7 cells, cell-based, fluorescence, HTS (AID 430); conditions: HPDE-C7 pancreatic duct cells viability, at 10 µM;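 further: cells exposed to compound for 48 hours before viability readout; 0% = vehicle and 100% = reference cytotoxic drug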
Out of some 63,000 compounds screened, about 1,100 (1.7%) were called active. No stated cut-off is given here; in the data, active means cytotoxicity above about 50%; inactive means the rest. This is one part of a sample in which actives are shown more often than they occur. Potency and affinity values are given separately.
Outcome codes: yes (1) = active, no (0) = inactive

> print(dat)
                                    molecule      cat
 1  Cc1cc2c(c(=O)n1CCN(C)C)C(c1ccncc1)C(C#N)=C(N)O2 (stereo unspecified)   no (0)
 2  Cc1cc2c(c(=O)n1CCN(C)C)C(c1ccc(Br)cc1)C(C#N)=C(N)O2 (stereo unspecified)  yes (1)
 3  Cc1cc(C)c2nc(NC3=NCN(CCN4CCOCC4)CN3)nc(C)c2c1   no (0)
 4  CCOC(=O)CSC1=C(C#N)C(c2sccc2C)CC(=O)N1 (stereo unspecified)  yes (1)
 5  CC1=C(C)C(=O)NC(Nc2nc(C)c3cc(C)cc(C)c3n2)N1 (stereo unspecified)  yes (1)
 6  OCCN1CCN(c2nc(-c3ccccc3)c3cc(Cl)ccc3n2)CC1  yes (1)
 7  CCOC(=O)CSC1=C(C#N)C(c2ccccc2OC)CC(=O)N1 (stereo unspecified)  yes (1)
 8  CCSC1=C(C#N)C(c2ccc(C)s2)CC(=O)N1 (stereo unspecified)   no (0)
 9         CCCCOCCCNC(=O)c1c(-c2ccccc2)noc1C   no (0)
10  CSC1=C(C#N)C(c2ccc(C)s2)CC(=O)N1 (stereo unspecified)   no (0)
11  CN1CCN(c2nc(-c3ccccc3)c3cc(Cl)ccc3n2)CC1   no (0)
